target: bovine cardiac myofibrils (full-length cardiac myosin ATPase in the native sarcomere) (Bos taurus (Bovine)); experiment: Skinned bovine cardiac myofibril ATPase assay (PK/LDH-coupled); type: biochemical; details: Ca2+ activating to 75% of maximal rate, concentration giving 15% inhibition
value.type: CDMF75 IC15 (µM)
Give just the numeric value; µM need not be written.

Exercise: I have this molecule here, Cc1ncoc1C(=O)N[C@@H]1CCc2cc(-c3noc(C(F)F)n3)ccc21 , and I need its recorded CDMF75 IC15.
Solution: 0.3

Exercise: I have this molecule here, CCc1nc(-c2ccc3c(c2)CC[C@H]3NC(=O)c2ccn(CCOC)n2)no1 , and I need its recorded CDMF75 IC15.
Solution: 4.1

Exercise: I have this molecule here, COCc1nc(-c2ccc3c(c2)CC[C@H]3NC(=O)c2cnn(C)c2)no1 , and I need its recorded CDMF75 IC15.
Solution: 1.9

Exercise: I have this molecule here, CCc1nc(-c2ccc3c(c2)CC[C@H]3NC(=O)c2cnc(C)n2C)no1 , and I need its recorded CDMF75 IC15.
Solution: 0.4

Exercise: I have this molecule here, Cc1nc(C(=O)NC2CCc3cc(-c4noc(C(F)F)n4)ccc32)no1 (centres unmarked) , and I need its recorded CDMF75 IC15.
Solution: 2.7

Exercise: I have this molecule here, Cc1nc(-c2ccc3c(c2)CC[C@H]3NC(=O)c2cnn(CCO)c2)no1 , and I need its recorded CDMF75 IC15.
Solution: 1.8

Exercise: I have this molecule here, COCCn1cc(C(=O)N[C@@H]2CCc3cc(-c4noc(C(C)C)n4)ccc32)cn1 , and I need its recorded CDMF75 IC15.
Solution: 3.0

Exercise: I have this molecule here, CCc1nc(-c2ccc3c(c2)CC[C@H]3NC(=O)c2cc(C(C)O)ccn2)no1 (some centres unmarked) , and I need its recorded CDMF75 IC15.
Solution: 1.5

Exercise: I have this molecule here, CCc1nc(-c2ccc3c(c2)CC[C@H]3NC(=O)N2CC[C@H](O)C2)no1 , and I need its recorded CDMF75 IC15.
Solution: 4.4

Exercise: I have this molecule here, CCc1nc(-c2ccc3c(c2)CC[C@H]3NC(=O)c2cnn(CCOC(C)=O)c2)no1 , and I need its recorded CDMF75 IC15.
Solution: 2.4

Exercise: I have this molecule here, Cc1nc(-c2ccc3c(c2)CC[C@H]3NC(=O)c2cn(C)nc2C)no1 , and I need its recorded CDMF75 IC15.
Solution: 1.1

Exercise: I have this molecule here, Cc1nc(-c2ccc3c(c2)CC[C@H]3NC(=O)OCC(C)C)no1 , and I need its recorded CDMF75 IC15.
Solution: 0.7

Exercise: I have this molecule here, Cc1nc(-c2ccc3c(c2)CC[C@H]3NC(=O)c2cnc(C)o2)no1 , and I need its recorded CDMF75 IC15.
Solution: 1.4

Exercise: I have this molecule here, COCc1nc(-c2ccc3c(c2)CC[C@H]3NC(=O)c2c[nH]nc2C)no1 , and I need its recorded CDMF75 IC15.
Solution: 0.9

Exercise: I have this molecule here, CC(=O)O[C@@H](C)c1nc(-c2ccc3c(c2)CC[C@H]3NC(=O)c2cnn(C)c2)no1 , and I need its recorded CDMF75 IC15.
Solution: 4.6

Exercise: I have this molecule here, O=C1C[C@@H](C(=O)N[C@@H]2CCc3cc(-c4noc(C5CC5)n4)ccc32)N1 , and I need its recorded CDMF75 IC15.
Solution: 15.6

Exercise: I have this molecule here, Cn1cc(C(=O)N[C@@H]2COc3cc(-c4noc(C5CC5)n4)ccc32)cn1 , and I need its recorded CDMF75 IC15.
Solution: 0.5

----------
For each entry below, report its pIC50 value.
biological target: bovine cardiac myofibrils (full-length cardiac myosin ATPase in the native sarcomere) (Bos taurus (Bovine), UniProt Q9BE39); assay: Skinned bovine cardiac myofibril ATPase assay (PK/LDH-coupled); conditions: Ca2+ activating to 75% of maximal rate, read-out: CDMF75 IC50
Sequence (Q9BE39 whole entry): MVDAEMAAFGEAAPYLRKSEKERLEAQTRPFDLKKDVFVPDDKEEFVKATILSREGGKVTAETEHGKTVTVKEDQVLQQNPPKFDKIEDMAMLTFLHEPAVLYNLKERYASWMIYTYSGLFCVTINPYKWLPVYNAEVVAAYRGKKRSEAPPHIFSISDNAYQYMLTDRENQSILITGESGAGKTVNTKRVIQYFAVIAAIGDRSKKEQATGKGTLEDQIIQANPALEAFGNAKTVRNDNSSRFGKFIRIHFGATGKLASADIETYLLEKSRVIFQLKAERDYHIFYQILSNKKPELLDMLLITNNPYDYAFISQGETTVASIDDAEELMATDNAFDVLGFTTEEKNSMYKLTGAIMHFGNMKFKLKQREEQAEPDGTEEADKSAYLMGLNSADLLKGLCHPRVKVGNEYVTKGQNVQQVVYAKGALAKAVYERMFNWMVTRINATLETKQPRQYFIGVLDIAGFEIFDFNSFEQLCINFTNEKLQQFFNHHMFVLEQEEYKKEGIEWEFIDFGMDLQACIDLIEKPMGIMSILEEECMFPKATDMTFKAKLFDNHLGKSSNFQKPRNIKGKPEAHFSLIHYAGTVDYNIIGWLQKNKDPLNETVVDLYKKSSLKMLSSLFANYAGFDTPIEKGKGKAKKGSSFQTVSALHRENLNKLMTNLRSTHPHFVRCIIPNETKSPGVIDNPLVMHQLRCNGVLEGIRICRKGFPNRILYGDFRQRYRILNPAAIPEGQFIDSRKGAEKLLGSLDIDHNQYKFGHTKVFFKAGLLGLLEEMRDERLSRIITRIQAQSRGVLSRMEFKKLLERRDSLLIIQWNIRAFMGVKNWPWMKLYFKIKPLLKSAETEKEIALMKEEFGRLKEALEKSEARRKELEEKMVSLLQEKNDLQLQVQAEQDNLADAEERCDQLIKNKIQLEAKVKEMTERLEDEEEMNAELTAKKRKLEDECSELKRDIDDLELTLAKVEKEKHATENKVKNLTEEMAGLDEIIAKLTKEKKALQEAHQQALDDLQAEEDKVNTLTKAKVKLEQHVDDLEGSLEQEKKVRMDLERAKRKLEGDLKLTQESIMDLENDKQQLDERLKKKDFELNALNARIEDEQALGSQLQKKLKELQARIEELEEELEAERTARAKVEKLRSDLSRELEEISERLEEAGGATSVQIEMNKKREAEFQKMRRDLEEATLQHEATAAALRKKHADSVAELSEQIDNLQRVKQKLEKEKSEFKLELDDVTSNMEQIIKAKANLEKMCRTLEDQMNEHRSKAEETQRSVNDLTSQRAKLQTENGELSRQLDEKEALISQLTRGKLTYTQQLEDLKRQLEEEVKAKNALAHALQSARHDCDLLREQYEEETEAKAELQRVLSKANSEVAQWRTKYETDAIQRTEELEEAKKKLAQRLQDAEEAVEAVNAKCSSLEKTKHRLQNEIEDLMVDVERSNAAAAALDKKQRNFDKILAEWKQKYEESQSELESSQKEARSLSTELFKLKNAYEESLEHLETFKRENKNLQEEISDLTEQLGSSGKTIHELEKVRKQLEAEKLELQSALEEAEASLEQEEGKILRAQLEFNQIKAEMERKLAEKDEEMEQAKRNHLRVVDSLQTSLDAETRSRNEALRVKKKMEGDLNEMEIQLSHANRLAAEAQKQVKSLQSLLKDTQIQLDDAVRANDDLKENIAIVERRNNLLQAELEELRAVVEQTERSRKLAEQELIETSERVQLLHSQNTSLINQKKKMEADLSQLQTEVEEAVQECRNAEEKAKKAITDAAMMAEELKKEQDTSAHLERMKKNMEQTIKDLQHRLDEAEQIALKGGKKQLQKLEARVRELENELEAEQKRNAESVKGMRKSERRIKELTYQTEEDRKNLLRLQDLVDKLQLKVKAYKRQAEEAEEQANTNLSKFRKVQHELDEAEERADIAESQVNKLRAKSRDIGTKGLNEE
Sequence (P85100 whole entry partner): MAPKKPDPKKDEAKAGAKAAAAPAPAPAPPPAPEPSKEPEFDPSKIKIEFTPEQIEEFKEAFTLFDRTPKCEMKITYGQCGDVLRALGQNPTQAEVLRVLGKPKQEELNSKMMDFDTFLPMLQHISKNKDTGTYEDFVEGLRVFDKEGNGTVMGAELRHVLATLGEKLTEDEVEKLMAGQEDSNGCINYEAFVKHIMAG
Sequence (Q3SZE5 whole entry partner): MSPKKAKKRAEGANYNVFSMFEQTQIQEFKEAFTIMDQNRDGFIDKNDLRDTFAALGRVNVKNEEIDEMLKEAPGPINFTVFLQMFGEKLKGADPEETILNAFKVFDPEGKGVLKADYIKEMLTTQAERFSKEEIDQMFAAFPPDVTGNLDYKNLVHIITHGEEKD
A value of pIC50 is the negative decimal logarithm of a concentration given in moles per litre.

Exercise: I have this compound here, CCc1nc(-c2ccc3c(c2)CC[C@H]3NC(=O)c2c[nH]nc2C)no1 , and I need its recorded pIC50.
Solution: 5.92

Exercise: I have this compound here, CCc1cc(-c2ccc3c(c2)CC[C@H]3NC(=O)c2cn[nH]c2C)no1 , and I need its recorded pIC50.
Solution: 6.05

Exercise: I have this compound here, CCc1nc(-c2ccc3c(c2)CC[C@H]3NC(=O)c2ccon2)no1 [Compound 585] , and I need its recorded pIC50.
Solution: 5.60

Exercise: I have this compound here, Cc1cccc(-c2ccc3c(c2)CC[C@H]3NC(=O)c2ccnn2C)c1 , and I need its recorded pIC50.
Solution: 5.49

Exercise: I have this compound here, CCc1nc(-c2ccc3c(c2)CC[C@H]3NC(=O)c2ccc(=O)n(C)c2)no1 , and I need its recorded pIC50.
Solution: 5.64

Exercise: I have this compound here, Cn1nnc(C(=O)N[C@@H]2CCc3cc(-c4noc(C(F)F)n4)ccc32)n1 , and I need its recorded pIC50.
Solution: 5.70

Exercise: I have this compound here, CCc1nc(-c2ccc3c(c2)CC[C@H]3NC(=O)c2cc(C)nn2C)no1 , and I need its recorded pIC50.
Solution: 6.00

Exercise: I have this compound here, COCc1nc(-c2ccc3c(c2)CC[C@H]3NC(=O)c2cc(C)on2)no1 , and I need its recorded pIC50.
Solution: 4.67

----------
Biological target: bovine cardiac myofibrils (full-length cardiac myosin ATPase in the native sarcomere) (Bos taurus (Bovine), UniProt Q9BE39)
Assay: Skinned bovine cardiac myofibril ATPase assay (PK/LDH-coupled)
Assay type: biochemical
Conditions: Ca2+ activating to 75% of maximal rate, concentration giving 15% inhibition
Experimental: To evaluate the effect of compounds on the ATPase activity of full-length cardiac myosin in the context of the native sarcomere, skinned myofibril assays were performed. […] Small molecule agents were assessed for their ability to inhibit the steady-state ATPase activity of bovine cardiac myofibrils using pyruvate kinase and lactate dehydrogenase (PK/LDH)-coupled enzyme system. This assay regenerates myosin-produced ADP into ATP by oxidizing NADH, producing an absorbance change at 340 nm. […]
Where CDMF75 IC15 equals or exceeds 2000 nM, the correct label is Met; where it does not, the label is Not met.

Exercise: Decide: is the reported value of CDMF75 IC15 for CCc1nc(-c2ccc3c(c2)OC[C@H]3NC(=O)c2ocnc2C)no1 equal to or greater than 2000 nM?
Solution: Not met

Exercise: Decide: is the reported value of CDMF75 IC15 for Cc1nc(-c2ccc3c(c2)OCC3NC(=O)c2oc(C)nc2C)no1 (stereo not drawn) equal to or greater than 2000 nM?
Solution: Not met

Exercise: Decide: is the reported value of CDMF75 IC15 for CCc1nc(-c2ccc3c(c2)OC[C@H]3NC(C)=O)no1 equal to or greater than 2000 nM?
Solution: Not met

Exercise: Decide: is the reported value of CDMF75 IC15 for O=C1C[C@H](C(=O)N[C@@H]2CCc3cc(-c4noc(C5CC5)n4)ccc32)N1 equal to or greater than 2000 nM?
Solution: Met

Exercise: Decide: is the reported value of CDMF75 IC15 for [2H]C([2H])([2H])c1nc(-c2ccc3c(c2)OC[C@H]3NC(=O)c2cnn(C)c2C)no1 equal to or greater than 2000 nM?
Solution: Not met

Exercise: Decide: is the reported value of CDMF75 IC15 for COCc1nc(-c2ccc3c(c2)CC[C@H]3NC(=O)c2cn[nH]c2)no1 equal to or greater than 2000 nM?
Solution: Not met

Exercise: Decide: is the reported value of CDMF75 IC15 for Cc1nc(-c2ccc3c(c2)CCC3NC(=O)c2ccccc2)no1 (stereo not drawn) equal to or greater than 2000 nM?
Solution: Not met

Exercise: Decide: is the reported value of CDMF75 IC15 for Cc1cc(C(=O)N[C@@H]2CCc3cc(-c4nc(C)no4)ccc32)n(C)n1 equal to or greater than 2000 nM?
Solution: Not met

Exercise: Decide: is the reported value of CDMF75 IC15 for CCc1nc(-c2ccc3c(c2)CC[C@H]3NC(=O)c2ccncc2C)no1 equal to or greater than 2000 nM?
Solution: Met

Exercise: Decide: is the reported value of CDMF75 IC15 for Cc1nc(-c2ccc3c(c2)OCC3NC(=O)c2cn(C)nc2C)no1 (stereo not drawn) equal to or greater than 2000 nM?
Solution: Not met

Exercise: Decide: is the reported value of CDMF75 IC15 for CCc1nc(-c2ccc3c(c2)CC[C@H]3NC(=O)c2conc2C)no1 equal to or greater than 2000 nM?
Solution: Not met

Exercise: Decide: is the reported value of CDMF75 IC15 for Cc1nc(-c2ccc3c(c2)OC[C@H]3NC(=O)c2cccc([C@@H](C)O)c2)no1 equal to or greater than 2000 nM?
Solution: Not met

Exercise: Decide: is the reported value of CDMF75 IC15 for Cc1cc(C(=O)NC2COc3cc(-c4noc(C5CC5)n4)ccc32)n(C)n1 (stereo not drawn) equal to or greater than 2000 nM?
Solution: Not met

Exercise: Decide: is the reported value of CDMF75 IC15 for COCc1nc(-c2ccc3c(c2)OC[C@@H]3NC(=O)c2cc(C)nn2C)no1 equal to or greater than 2000 nM?
Solution: Met

Exercise: Decide: is the reported value of CDMF75 IC15 for CCc1nc(-c2ccc3c(c2)CC[C@H]3NC(=O)c2cnn(C[C@@H](O)CO)c2)no1 equal to or greater than 2000 nM?
Solution: Not met

Exercise: Decide: is the reported value of CDMF75 IC15 for COCc1nc(-c2ccc3c(c2)OC[C@H]3NC(=O)c2cc(CO)ccn2)no1 equal to or greater than 2000 nM?
Solution: Met

Exercise: Decide: is the reported value of CDMF75 IC15 for COCc1nc(-c2ccc3c(c2)CC[C@H]3NC(=O)c2cc(OC)no2)no1 equal to or greater than 2000 nM?
Solution: Not met

Exercise: Decide: is the reported value of CDMF75 IC15 for Cc1nc(-c2cnc3c(c2)CCC3NC(=O)c2ccccc2)no1 (stereo not drawn) equal to or greater than 2000 nM?
Solution: Met
